# IC50 per record follows
molecular target: UniProt:Q7ZJM1; test: Inhibition of HIV1 integrase assessed as inhibition of strand transfer activity by 32P-labelled assay
Note: unit nM is implicit; provide only the numeric part.

# count of solved cases: 3
- smiles-notation: "O=C(Nc1ccc(S(=O)(=O)Nc2ccc(F)c(F)c2F)cc1)c1cc(O)c(O)c(O)c1"
  property-name: "IC50"
  test-result: 3000
- smiles-notation: "O=C(Nc1ccc(S(=O)(=O)Nc2ccc(F)c(F)c2)cc1)c1cc(O)c(O)c(O)c1"
  property-name: "IC50"
  test-result: 1500
- smiles-notation: "CCOc1ccc(NS(=O)(=O)c2ccc(NC(=O)c3cc(O)c(O)c(O)c3)cc2)cc1"
  property-name: "IC50"
  test-result: 1300

Quick one: give measured IC50 for O=C(/C=C/c1ccc(O)c(O)c1)Nc1ccc(S(=O)(=O)Nc2ccccc2)cc1
12000

Quick one: give measured IC50 for CC(=O)Oc1cc(C(=O)Nc2ccc(S(=O)(=O)Nc3ccccc3C)cc2)cc(OC(C)=O)c1OC(C)=O
1600

Quick one: give measured IC50 for Cc1ccccc1NS(=O)(=O)c1ccc(NC(=O)c2cc(O)c(O)c(O)c2)cc1
2000

Quick one: give measured IC50 for O=C(Nc1ccc(S(=O)(=O)NCc2ccc(Cl)cc2)cc1)c1cc(O)c(O)c(O)c1
2000

Quick one: give measured IC50 for O=C(Nc1ccc(S(=O)(=O)Nc2ccccc2)cc1)c1cc(O)c(O)c(O)c1
1500

====

# pIC50 per record follows
biological target: Human immunodeficiency virus type 1 integrase (Human immunodeficiency virus 1); assay: Inhibition of HIV1 integrase assessed as inhibition of strand transfer activity by 32P-labelled assay
By convention, pIC50 is the negative base-10 log of a molar concentration.

- smiles-notation: "NS(=O)(=O)c1ccc(NC(=O)c2cc(O)c(O)c(O)c2)cc1"
  property-name: "pIC50"
  test-result: 5.70
- smiles-notation: "O=C(Nc1ccc(S(=O)(=O)Nc2ccc(F)cc2)cc1)c1cc(O)c(O)c(O)c1"
  property-name: "pIC50"
  test-result: 6.05
- smiles-notation: "Cc1cc(C)cc(NS(=O)(=O)c2ccc(NC(=O)c3cc(O)c(O)c(O)c3)cc2)c1"
  property-name: "pIC50"
  test-result: 5.60

Quick one: give measured pIC50 for CC(=O)Oc1cc(C(=O)Nc2ccc(S(=O)(=O)Nc3ccccc3)cc2)cc(OC(C)=O)c1OC(C)=O
5.80

Quick one: give measured pIC50 for Cc1ccc(NS(=O)(=O)c2ccc(NC(=O)c3cc(O)c(O)c(O)c3)cc2)cc1C
5.10

====

biological target: Human immunodeficiency virus type 1 integrase (Human immunodeficiency virus 1)
property-name: IC50 (µM)
Note: unit µM is implicit; provide only the numeric part.

# count of solved cases: 5
- smiles-notation: "CCCCc1ccc(NS(=O)(=O)c2ccc(NC(=O)c3cc(O)c(O)c(O)c3)cc2)cc1"
  IC50 (µM): 3
- smiles-notation: "Cc1ccc(NS(=O)(=O)c2ccc(NC(=O)c3cc(O)c(O)c(O)c3)cc2)cc1C"
  IC50 (µM): 8
- smiles-notation: "O=C(Nc1ccc(S(=O)(=O)Nc2ccccc2)cc1)c1cc(O)c(O)c(O)c1"
  IC50 (µM): 7
- smiles-notation: "O=C(Nc1ccc(S(=O)(=O)Nc2ccc(F)cc2)cc1)c1cc(O)c(O)c(O)c1"
  IC50 (µM): 7
- smiles-notation: "O=C(Nc1ccc(S(=O)(=O)Nc2ccc([N+](=O)[O-])cc2)cc1)c1cc(O)c(O)c(O)c1"
  IC50 (µM): 4

Quick one: give measured IC50 for Cc1cc(C)cc(NS(=O)(=O)c2ccc(NC(=O)c3cc(O)c(O)c(O)c3)cc2)c1
8

Quick one: give measured IC50 for CCOc1ccc(NS(=O)(=O)c2ccc(NC(=O)c3cc(O)c(O)c(O)c3)cc2)cc1
6

Quick one: give measured IC50 for COc1ccc(NS(=O)(=O)c2ccc(NC(=O)c3cc(O)c(O)c(O)c3)cc2)cc1
5

Quick one: give measured IC50 for O=C(Nc1ccc(S(=O)(=O)Nc2ccccc2)cc1)c1ccc(O)c(O)c1
100

====

biological target: Human immunodeficiency virus type 1 integrase (Human immunodeficiency virus 1, UniProt Q7ZJM1); test: Inhibition of HIV1 integrase assessed as inhibition of strand transfer activity by 32P-labelled assay
Sequence (Q7ZJM1 whole entry): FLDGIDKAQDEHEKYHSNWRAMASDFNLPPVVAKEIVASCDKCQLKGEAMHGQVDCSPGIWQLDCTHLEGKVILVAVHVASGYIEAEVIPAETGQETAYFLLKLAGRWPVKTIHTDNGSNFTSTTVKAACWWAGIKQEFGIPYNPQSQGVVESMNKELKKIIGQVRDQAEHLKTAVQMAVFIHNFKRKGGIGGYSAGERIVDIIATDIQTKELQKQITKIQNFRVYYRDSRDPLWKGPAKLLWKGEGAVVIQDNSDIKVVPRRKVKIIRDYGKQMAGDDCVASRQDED
property-name: pIC50
By convention, pIC50 is the negative base-10 log of a molar concentration.

- smiles-notation: "CCCCc1ccc(NS(=O)(=O)c2ccc(NC(=O)c3cc(O)c(O)c(O)c3)cc2)cc1"
  property-name: "pIC50"
  test-result: 5.60
- smiles-notation: "O=C(Nc1ccc(S(=O)(=O)Nc2ccc([N+](=O)[O-])cc2)cc1)c1cc(O)c(O)c(O)c1"
  property-name: "pIC50"
  test-result: 5.52

Quick one: give measured pIC50 for COc1ccc(NS(=O)(=O)c2ccc(NC(=O)c3cc(O)c(O)c(O)c3)cc2)cc1
5.35

Quick one: give measured pIC50 for O=C(Nc1ccc(S(=O)(=O)Nc2ccc(Cl)c(Cl)c2)cc1)c1cc(O)c(O)c(O)c1
5.77

Quick one: give measured pIC50 for O=C(Nc1ccc(S(=O)(=O)NCc2ccc(F)cc2)cc1)c1cc(O)c(O)c(O)c1
5.70

Quick one: give measured pIC50 for O=C(Nc1ccc(S(=O)(=O)Nc2ccc(Br)cc2)cc1)c1cc(O)c(O)c(O)c1
6.15

Quick one: give measured pIC50 for O=C(Nc1ccc(S(=O)(=O)Nc2ccccc2)cc1)c1ccc(O)c(O)c1
4.30

Quick one: give measured pIC50 for O=C(Nc1ccc(S(=O)(=O)Nc2ccc(Cl)cc2)cc1)c1cc(O)c(O)c(O)c1
5.70

Quick one: give measured pIC50 for O=C(Nc1ccc(S(=O)(=O)Nc2cccc(Br)c2)cc1)c1cc(O)c(O)c(O)c1
6.15

====

target: Human immunodeficiency virus type 1 integrase (Human immunodeficiency virus 1, UniProt Q7ZJM1)
# IC50 per record follows

# count of solved cases: 5
- smiles-notation: "O=C(Nc1ccc(S(=O)(=O)Nc2ccc(F)c(F)c2)cc1)c1cc(O)c(O)c(O)c1"
  IC50: "4 µM"
- smiles-notation: "NS(=O)(=O)c1ccc(NC(=O)c2cc(O)c(O)c(O)c2)cc1"
  IC50: "22 µM"
- smiles-notation: "CC(=O)Oc1cc(C(=O)Nc2ccc(S(=O)(=O)Nc3ccccc3)cc2)cc(OC(C)=O)c1OC(C)=O"
  IC50: "8 µM"
- smiles-notation: "O=C(Nc1ccc(S(=O)(=O)Nc2ccc(Cl)c(Cl)c2)cc1)c1cc(O)c(O)c(O)c1"
  IC50: "5 µM"
- smiles-notation: "O=C(Nc1ccc(S(=O)(=O)Nc2ccc(Cl)cc2)cc1)c1cc(O)c(O)c(O)c1"
  IC50: "6 µM"

Quick one: give measured IC50 for O=C(Nc1ccc(S(=O)(=O)NCc2ccc(F)cc2)cc1)c1cc(O)c(O)c(O)c1
7 µM

Quick one: give measured IC50 for O=C(/C=C/c1ccc(O)c(O)c1)Nc1ccc(S(=O)(=O)Nc2ccccc2)cc1
16 µM

Quick one: give measured IC50 for O=C(Nc1ccc(S(=O)(=O)Nc2ccc(F)c(F)c2F)cc1)c1cc(O)c(O)c(O)c1
7 µM

Quick one: give measured IC50 for O=C(Nc1ccc(S(=O)(=O)Nc2cccc(Br)c2)cc1)c1cc(O)c(O)c(O)c1
2 µM

Quick one: give measured IC50 for O=C(Nc1ccc(S(=O)(=O)Nc2ccc(Br)cc2)cc1)c1cc(O)c(O)c(O)c1
3 µM

Quick one: give measured IC50 for Cc1ccccc1NS(=O)(=O)c1ccc(NC(=O)c2cc(O)c(O)c(O)c2)cc1
7 µM

Quick one: give measured IC50 for O=C(Nc1ccc(S(=O)(=O)NCc2ccc(Cl)cc2)cc1)c1cc(O)c(O)c(O)c1
5 µM

Quick one: give measured IC50 for CC(=O)Oc1cc(C(=O)Nc2ccc(S(=O)(=O)Nc3ccccc3C)cc2)cc(OC(C)=O)c1OC(C)=O
> 10 µM

Source listed as ChEMBL document CHEMBL1153503.
